- assay.notes: LD50 acute toxicity, ddy mice, single abdominal injection
- test.context: mouse, in vivo, ip, 5 ddy mice, 14 days observation, Behrens-Koerber's method
Simple rule here: LD50 at 336 h less than 40 mg/kg is T, otherwise F.

CO[C@@]12[C@H](COC(N)=O)C3=C(C(=O)C(C)=C(NCCSC(=O)N4CCC[C@H]4C(=O)OCc4ccccc4)C3=O)N1C[C@@H]1N[C@@H]12 [Compound 16]: F

Consider the molecule CO[C@@]12[C@H](COC(N)=O)C3=C(C(=O)C(C)=C(NCCSC(=O)NCc4ccccc4)C3=O)N1C[C@@H]1N[C@@H]12 [Compound 22] . Is its LD50 at 336 h strictly less than 40 mg/kg?
T

Now consider COC(=O)[C@H]1CCCN1C(=O)SCCNC1=C(C)C(=O)C2=C(C1=O)[C@@H](COC(N)=O)[C@@]1(OC)[C@H]3N[C@H]3CN21 [Compound 32] .
F

Try this molecule too: CO[C@@]12[C@H](COC(N)=O)C3=C(C(=O)C(C)=C(NCCSC(=O)N4CCCCC4)C3=O)N1C[C@@H]1N[C@@H]12 [Compound 42]
T

Repeat for the following molecule: CO[C@@]12[C@H](COC(N)=O)C3=C(C(=O)C(C)=C(NCCSC(=O)NCCc4ccccn4)C3=O)N1C[C@@H]1N[C@@H]12 [Compound 49]
F

Another molecule to look at: CO[C@@]12[C@H](COC(N)=O)C3=C(C(=O)C(C)=C(NCCSC(=O)NC(C)(C)C)C3=O)N1C[C@@H]1N[C@@H]12 [Compound 5]
T

The origin of these recorded values is patent US4863935A.
